Species on record: Rattus norvegicus
method notes: DrugMatrix - Regimen: Daily Repeat
Type: toxicity, organism-based, Sprague-Dawley
Parameters: regimen Daily Repeat, gender Male, age 6-8 weeks
measurement conditions: in vivo, po, 0 mg/kg, 72 h, tissue Plasma, route oral GAVAGE, dose level Control, time 3 day, vehicle 100 % WATER
measure: ALKALINE PHOSPHATASE (u/L)
Please give a number only; it is taken to be in u/L.

Let me know recorded ALKALINE PHOSPHATASE for CCN(CC)CC#CCOC(=O)C(O)(c1ccccc1)C1CCCCC1 (stereo not given) [OXYBUTYNIN] , thanks.
335

Let me know recorded ALKALINE PHOSPHATASE for OCCO [ETHYLENE GLYCOL] , thanks.
383.83

Let me know recorded ALKALINE PHOSPHATASE for CC[C@H]1OC(=O)[C@H](C)[C@@H](O[C@H]2C[C@@](C)(OC)[C@@H](O)[C@H](C)O2)[C@H](C)[C@@H](O[C@@H]2O[C@H](C)C[C@H](N(C)C)[C@H]2O)[C@](C)(O)C[C@@H](C)CN(C)[C@H](C)[C@@H](O)[C@]1(C)O [AZITHROMYCIN] , thanks.
356.17

Let me know recorded ALKALINE PHOSPHATASE for Nc1ccc(S(=O)(=O)Nc2ncccn2)cc1 [SULFADIAZINE] , thanks.
399.83

Let me know recorded ALKALINE PHOSPHATASE for CC(C)(C)NC[C@H](O)COc1nsnc1N1CCOCC1 [TIMOLOL] , thanks.
368.33

Let me know recorded ALKALINE PHOSPHATASE for Cc1c(N(C)CS(=O)(=O)[O-])c(=O)n(-c2ccccc2)n1C.[Na+] [DIPYRONE SODIUM] , thanks.
400.83

Let me know recorded ALKALINE PHOSPHATASE for O=P1(N(CCCl)CCCl)NCCCO1 (stereo not given) [CYCLOPHOSPHAMIDE ANHYDROUS] , thanks.
337

Let me know recorded ALKALINE PHOSPHATASE for CCN[C@@H](C)Cc1cccc(C(F)(F)F)c1 [DEXFENFLURAMINE] , thanks.
399.83

More entries:
Let me know recorded ALKALINE PHOSPHATASE for CNS(=O)(=O)Cc1ccc2[nH]cc(CCN(C)C)c2c1 , thanks.
395

Let me know recorded ALKALINE PHOSPHATASE for Nc1ccc(S(=O)(=O)Nc2nccs2)cc1 [SULFATHIAZOLE] , thanks.
368.33

====

Species on record: Rattus norvegicus
method notes: DrugMatrix - Regimen: Daily Repeat
Assay type: toxicity, organism-based, Sprague-Dawley
Set-up: regimen Daily Repeat, gender Male, age 6-8 weeks
measurement conditions: in vivo, po, 0 mg/kg, 72 h, tissue Blood, route oral GAVAGE, dose level Control, time 3 day, […]
Listed here: items and their measured EOSINOPHIL.
Please give a number only; it is taken to be in %.

Let me know recorded EOSINOPHIL for COc1ncnc(NS(=O)(=O)c2ccc(N)cc2)c1OC , thanks.
0.33

Let me know recorded EOSINOPHIL for NC[C@@H]1O[C@H](O[C@H]2[C@@H](O)[C@H](O[C@@H]3[C@@H](O)[C@H](N)C[C@H](N)[C@H]3O[C@H]3O[C@H](CN)[C@@H](O)[C@H](O)[C@H]3N)O[C@@H]2CO)[C@H](N)[C@@H](O)[C@@H]1O , thanks.
0.17

Let me know recorded EOSINOPHIL for CN(CCOc1ccc(CC2SC(=O)NC2=O)cc1)c1ccccn1 (stereo unspecified) , thanks.
0.17

Let me know recorded EOSINOPHIL for CC[C@H](C)C(=O)O[C@H]1C[C@@H](C)C=C2C=C[C@H](C)[C@H](CC[C@@H]3C[C@@H](O)CC(=O)O3)[C@H]21 , thanks.
0.33

Let me know recorded EOSINOPHIL for OCCN1CCN(CCCN2c3ccccc3Sc3ccc(C(F)(F)F)cc32)CC1 , thanks.
0

Let me know recorded EOSINOPHIL for CC(=O)Nc1nnc(S(N)(=O)=O)s1 [ACETAZOLAMIDE] , thanks.
0.33

Let me know recorded EOSINOPHIL for CC(C)Cc1ccc(CC(=O)O)cc1 , thanks.
1.83

Let me know recorded EOSINOPHIL for CC(CCc1ccc(O)cc1)NCCc1ccc(O)c(O)c1 (stereo unspecified) , thanks.
0.37

More entries:
Let me know recorded EOSINOPHIL for CCn1cc(C(=O)O)c(=O)c2cc(F)c(N3CCNCC3)nc21 , thanks.
0.67

Let me know recorded EOSINOPHIL for C#C[C@]1(O)CC[C@H]2[C@@H]3CCc4cc(O)ccc4[C@H]3CC[C@@]21C , thanks.
0.67

Let me know recorded EOSINOPHIL for CC[C@H](C)C(=O)O[C@H]1C[C@H](O)C=C2C=C[C@H](C)[C@H](CC[C@@H](O)C[C@@H](O)CC(=O)O)[C@H]21 , thanks.
0.17

====

Species: Rattus norvegicus
method notes: DrugMatrix - Regimen: Daily Repeat
Format: toxicity, organism-based, Sprague-Dawley
Parameters: regimen Daily Repeat, gender Male, age 6-8 weeks
measurement conditions: in vivo, po, 0 mg/kg, 72 h, tissue Plasma, route oral GAVAGE, dose level Control, time 3 day, vehicle 100 % WATER
Listed here: items and their measured URIC ACID.
Please give a number only; it is taken to be in mg/dL.

Sample answers from the record:
Let me know recorded URIC ACID for Cc1c(N(C)CS(=O)(=O)[O-])c(=O)n(-c2ccccc2)n1C.[Na+] [DIPYRONE SODIUM] , thanks.
1.77

Let me know recorded URIC ACID for CCCCCCCCCCCCCCCC[n+]1ccccc1.[Br-] , thanks.
1.57

Let me know recorded URIC ACID for CC(C)(C)NC[C@H](O)COc1nsnc1N1CCOCC1 [TIMOLOL] , thanks.
0.65

More entries:
Let me know recorded URIC ACID for CCCc1nn(C)c2c(=O)[nH]c(-c3cc(S(=O)(=O)N4CCN(C)CC4)ccc3OCC)nc12 , thanks.
0.5

Let me know recorded URIC ACID for CN1C2CCCC1CC(NC(=O)c1nn(C)c3ccccc13)C2 (centres undefined) [GRANISETRON] , thanks.
0.65

Let me know recorded URIC ACID for CCOC(N)=O , thanks.
1.35

Let me know recorded URIC ACID for CNS(=O)(=O)Cc1ccc2[nH]cc(CCN(C)C)c2c1 , thanks.
1.82

Let me know recorded URIC ACID for O=C(O)c1cccnc1 [NIACIN] , thanks.
2.87

Let me know recorded URIC ACID for CC[C@H]1OC(=O)[C@H](C)[C@@H](O[C@H]2C[C@@](C)(OC)[C@@H](O)[C@H](C)O2)[C@H](C)[C@@H](O[C@@H]2O[C@H](C)C[C@H](N(C)C)[C@H]2O)[C@](C)(O)C[C@@H](C)CN(C)[C@H](C)[C@@H](O)[C@]1(C)O [AZITHROMYCIN] , thanks.
1

Let me know recorded URIC ACID for CC[C@H]1OC(=O)[C@H](C)[C@@H](O[C@H]2C[C@@](C)(OC)[C@@H](O)[C@H](C)O2)[C@H](C)[C@@H](O[C@@H]2O[C@H](C)C[C@H](N(C)C)[C@H]2O)[C@](C)(OC)C[C@@H](C)C(=O)[C@H](C)[C@@H](O)[C@]1(C)O [CLARITHROMYCIN] , thanks.
1.23

Let me know recorded URIC ACID for Nc1ccc(S(=O)(=O)Nc2nccs2)cc1 [SULFATHIAZOLE] , thanks.
0.65

Let me know recorded URIC ACID for O=P1(N(CCCl)CCCl)NCCCO1 (centres undefined) [CYCLOPHOSPHAMIDE ANHYDROUS] , thanks.
0.65

Let me know recorded URIC ACID for OCCO [ETHYLENE GLYCOL] , thanks.
0.5

Let me know recorded URIC ACID for CCN(CC)CC#CCOC(=O)C(O)(c1ccccc1)C1CCCCC1 (centres undefined) [OXYBUTYNIN] , thanks.
1.67

====

Species on record: Rattus norvegicus
method notes: DrugMatrix - Regimen: Daily Repeat
Format: toxicity, organism-based, Sprague-Dawley
Design: regimen Daily Repeat, gender Male, age 6-8 weeks
measurement conditions: in vivo, po, 1200 mg/kg, […], tissue Blood, route oral GAVAGE, dose level High, time 14 day
measure: ABSOLUTE LYMPHOCYTE (cells/µL)
Please give a number only; it is taken to be in cells/µL.

Let me know recorded ABSOLUTE LYMPHOCYTE for CC[C@H](C)C(=O)O[C@H]1C[C@H](O)C=C2C=C[C@H](C)[C@H](CC[C@@H](O)C[C@@H](O)CC(=O)O)[C@H]21 [PRAVASTATIN] , thanks.
4950
